conditions: buffer; pH 7.4; 200.0 µM
Tag: True if measured solubility kinetic is not below 20 µg/mL, False if it is.

Consider the worked cases shown below.
[
  {
    "MOLECULE": "COc1ccccc1C(=O)Nc1cc(-c2ccc(C)cc2)no1",
    "CATEGORY": "False"
  },
  {
    "MOLECULE": "Cc1cccc(OCC(O)CN2CCc3ccccc3C2)c1.Cl (stereo not given)",
    "CATEGORY": "True"
  },
  {
    "MOLECULE": "O=C(CCc1ccccc1F)N1CCN(c2ccccc2)CC1",
    "CATEGORY": "True"
  }
]

Qu. Determine whether measured solubility kinetic meets or exceeds 20 µg/mL for Cc1ccc(C(=O)O)cc1NC(=O)Nc1cccc2ccccc12
Ans. True

Qu. Dear colleague, could you confirm whether CCC(Oc1ccccc1OC)C(=O)N1CC(=O)Nc2ccccc21 (stereo not given) has solubility kinetic at or above 20 µg/mL?
Ans. True

Qu. Tell me whether solubility kinetic is at least 20 µg/mL here: C(=N\N1CCOCC1)/c1ccsc1.O=P(O)(O)O
Ans. True
